- target.or.test.system: CYP3A4 (Homo sapiens, UniProt P08684)
- Sequence (P08684 whole entry): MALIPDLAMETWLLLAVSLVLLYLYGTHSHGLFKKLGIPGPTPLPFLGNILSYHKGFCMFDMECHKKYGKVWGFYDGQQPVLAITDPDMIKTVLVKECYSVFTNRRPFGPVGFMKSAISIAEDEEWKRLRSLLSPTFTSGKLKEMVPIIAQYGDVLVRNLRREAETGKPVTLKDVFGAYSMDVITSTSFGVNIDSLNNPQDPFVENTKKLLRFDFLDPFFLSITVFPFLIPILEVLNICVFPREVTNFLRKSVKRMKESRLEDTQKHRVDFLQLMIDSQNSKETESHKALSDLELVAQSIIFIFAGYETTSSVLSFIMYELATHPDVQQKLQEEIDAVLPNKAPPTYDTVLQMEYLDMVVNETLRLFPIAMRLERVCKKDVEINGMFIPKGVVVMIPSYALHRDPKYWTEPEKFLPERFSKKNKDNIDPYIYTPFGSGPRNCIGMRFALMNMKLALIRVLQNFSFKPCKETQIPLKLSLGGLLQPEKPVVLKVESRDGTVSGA
- test: Determination of compound Kiapp against recombinant CYP3A4 enzyme (BFC fluorescent substrate)
- Assay type: biochemical
- assay.setup: Super. enzyme preparation, read-out: Kiapp (BFC, Super.)
- Experimental: 1. Determination of compound Kiapp A determination of the Kiapp of the compounds of the invention against recombinant CYP3A4 enzyme was performed as follows. The assay was performed in a 100 mM sodium phosphate buffer pH 7.0, 5 mM TCEP and containing 2% dimethylformamide (final concentration) upon addition of substrate and inhibitor. […] The oxidation of the coumarin substrate was recorded by a 96-well plate reader POLARstar (BMG LABTECH, Offenburg, Germany). […]
recorded.metric: pKi
Units for pKi: none; it is -log10 of a concentration expressed in mol/L.

The examples below pair each entry with its known result.
COc1cncc(NS(=O)(=O)c2ccccc2C(=O)NCc2cc(Cl)ccc2F)c1 | 7.91
CCOc1cncc(NS(=O)(=O)c2ccccc2C(=O)N2CCCC2)c1 | 6.96
CCCCCN(C)C(=O)c1ccccc1S(=O)(=O)Nc1cncc(OC)c1 | 8.21
COc1cncc(NS(=O)(=O)c2ccccc2C(=O)NC(C(C)C)C(C)C)c1 | 8.10

Fill in: pKi of `O=C(NCc1ccc(F)c(F)c1)c1ccccc1S(=O)(=O)Nc1cccnc1` is ___
7.92

Fill in: pKi of `Cc1cncc(NS(=O)(=O)c2ccccc2C(=O)NCc2ccc(F)c(F)c2)c1` is ___
7.55

Fill in: pKi of `Cc1cncc(NS(=O)(=O)c2ccccc2C(=O)N(C)Cc2ccc(F)cc2)c1` is ___
8.07

Fill in: pKi of `COc1ccncc1NS(=O)(=O)c1ccccc1C(=O)N(C)Cc1ccc(F)c(F)c1` is ___
8.28

Fill in: pKi of `COc1cncc(NS(=O)(=O)c2ccc(F)cc2C(=O)NCc2ccc(F)cc2)c1` is ___
7.77

Reference for the values: patent US7868026B2
